Reported Emax values follow for various compounds
- MEASURED TARGET: M1 muscarinic receptor (Homo sapiens, UniProt P11229)
- Construct: expressed in transfected cells; host or cells: CHO (M1-CHO)
- Sequence (P11229 whole entry): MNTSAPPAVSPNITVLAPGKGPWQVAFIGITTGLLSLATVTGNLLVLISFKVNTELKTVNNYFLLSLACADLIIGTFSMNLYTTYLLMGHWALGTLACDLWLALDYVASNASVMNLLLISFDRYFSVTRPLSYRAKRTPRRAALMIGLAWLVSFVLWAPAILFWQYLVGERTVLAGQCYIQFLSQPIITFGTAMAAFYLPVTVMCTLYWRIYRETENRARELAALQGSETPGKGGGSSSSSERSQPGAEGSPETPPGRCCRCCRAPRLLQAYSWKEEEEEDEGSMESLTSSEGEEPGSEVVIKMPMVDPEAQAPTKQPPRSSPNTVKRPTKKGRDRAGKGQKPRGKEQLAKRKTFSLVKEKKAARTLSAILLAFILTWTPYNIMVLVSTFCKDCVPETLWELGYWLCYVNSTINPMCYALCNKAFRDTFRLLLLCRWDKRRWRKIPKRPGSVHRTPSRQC
- ASSAY DETAILS: Functional mobilization of intracellular calcium (FLIPR) in CHO cells expressing M1
- Assay type: cell-based
- RUN CONDITIONS: CHO; 100% efficacy = maximum response obtained with the Carbachol control

The examples below pair each entry with its known result.
- COMPOUND: "CC(C)(C)OC(=O)N1CCC2(CC1)C[C@H](NC(=O)C1CC1)c1ccccc12"
  MEASURED TARGET: "M1 muscarinic receptor (Homo sapiens, UniProt P11229)"
  Emax: "< 25%"
- COMPOUND: "CCOc1ccc(CN2CCC3(CC[C@H](NC(C)=O)c4ccccc43)CC2)cc1"
  MEASURED TARGET: "M1 muscarinic receptor (Homo sapiens, UniProt P11229)"
  Emax: "25 to 100%"
- COMPOUND: "CCC(CC)(CCC#N)CN1CCC2(CC1)C[C@H](NC(C)=O)c1ccccc12"
  MEASURED TARGET: "M1 muscarinic receptor (Homo sapiens, UniProt P11229)"
  Emax: "25 to 100%"
- COMPOUND: "CC(=O)CCC(=O)N[C@@H]1CCC2(CCN(CCC(C)(C)C)CC2)c2ccccc21"
  MEASURED TARGET: "M1 muscarinic receptor (Homo sapiens, UniProt P11229)"
  Emax: "25 to 100%"
- COMPOUND: "CCNC(=O)CN1CCC2(CC1)C[C@H](NC(C)=O)c1ccccc12"
  MEASURED TARGET: "M1 muscarinic receptor (Homo sapiens, UniProt P11229)"
  Emax: "< 25%"
- COMPOUND: "CC(C)(C)CN1CCC2(CC1)CC(C(=O)O)c1ccccc12 (stereo not drawn)"
  MEASURED TARGET: "M1 muscarinic receptor (Homo sapiens, UniProt P11229)"
  Emax: "< 25%"

query: Fill in: Emax of `CC(=O)N[C@@H]1CCC2(CCN(C(=O)OC(C)(C)C)CC2)c2ccccc21` is ___
result: < 25%

query: What about CC(C)(C)CCN1CCC2(CC1)CC(C(=O)O)c1ccccc12 (stereo not drawn) ?
result: 25 to 100%

query: Then this compound: `CCN(CC)C(=O)CN1CCC2(CC1)C[C@H](NC(C)=O)c1ccccc12`
result: < 25%

query: Field entry: `CCn1ccc(C(=O)N[C@H]2CCC3(CCN(CCC(C)(C)C)CC3)c3ccccc32)n1`
result: 25 to 100%

query: Now try `CC(=O)N[C@H]1CC2(CCN(CCC(C)(C)C)CC2)c2ccc(C)cc21` .
result: < 25%

query: Would you mind doing `CCN(C(C)=O)[C@H]1CCC2(CCN(CCC(C)(C)C)CC2)c2ccccc21` as well?
result: 25 to 100%

Values compiled from patent US8003660B2.
